- methodSummary: qHTS assay for small molecule agonists of the antioxidant response element (ARE) signaling pathway (AID 651741); for activation: % of control where 0% means no effect
- conditionSummary: HepG2 ARE-bla reporter, beta-lactamase FRET ratio, 16 h; series mostly up to 96 µM
Inconclusive results are not listed. Calls of active or inactive are those of the source. Calls come from the whole dose curve; as a rule, active = well fitted activation curve with a large enough effect in the signal ratio; inconclusive = small, poorly fitted or top-dose-only effect, or effect the other way, or a change in a side signal; inactive = flat fitted curve, though single readings scatter; the % refers to the signal ratio.
Write down the outcome that applies. Available outcomes: TRUE = active, FALSE = inactive

Ask: For this compound, state the assay outcome: c1ccc2c(c1)ccc1ncccc12
Reply: FALSE

Ask: // query: CC=O
Reply: FALSE

Ask: Lookup C=C(C)C(=O)OC
Reply: FALSE

Ask: Also check Cc1ccc(C)cc1
Reply: FALSE

Ask: Item: C1CCOC1
Reply: FALSE

Ask: Now this one: CCC(C)(C)C(=O)O
Reply: FALSE

Ask: Consider next the compound CCC=O in the same way.
Reply: FALSE

Ask: What would you report for NC(=S)NNC(N)=S ?
Reply: FALSE

Ask: Can you check C=CC(=O)OCCCC next?
Reply: FALSE

Ask: Do the same for FC(F)(F)c1ccccc1Cl please
Reply: FALSE

Ask: # repeat for O=Nc1ccc(NO)cc1
Reply: TRUE

Ask: Now consider Cc1ccc2c(c1[N+](=O)[O-])C(=O)c1ccccc1C2=O .
Reply: TRUE

Ask: Further, for CC(=O)Nc1ccccc1C ?
Reply: FALSE

Ask: Further, for CCCCCO ?
Reply: FALSE

Ask: Same lookup for Cc1ccccc1C(=O)O , please.
Reply: FALSE

Ask: Ok, now Cc1ccc2ncccc2c1
Reply: FALSE

Ask: Now try Cc1cc(C)cc(N)c1 .
Reply: FALSE

Ask: What about Cc1cccc(C)c1[N+](=O)[O-] ?
Reply: FALSE

Ask: Again, but for C=C(C)C(=O)OCC(C)O (centres undefined)
Reply: FALSE

Ask: Now consider Cc1ccc2nc(-c3ccc(N)cc3)sc2c1S(=O)(=O)O .
Reply: TRUE

Ask: Another: Nc1cc(Cl)c([N+](=O)[O-])cc1O
Reply: TRUE

Ask: Next: CCCCC(CC)COC(=O)CCCCC(=O)OCC(CC)CCCC (centres undefined)
Reply: FALSE

Ask: Now consider Nc1ccccc1[N+](=O)[O-] and answer again.
Reply: FALSE

Ask: Try the compound CCC(C)(C)OC
Reply: FALSE

Ask: Now consider O=[N+]([O-])c1cccc(Cl)c1 and answer again.
Reply: FALSE

Ask: // same read-out, input: Nc1ccc(F)cc1F
Reply: FALSE

Ask: And CN(C)CCCCl ?
Reply: FALSE

Ask: Also check Cc1ccc(N(C)C)cc1
Reply: FALSE

Ask: Then this compound: CC(O)COC(C)(C)C (centres undefined)
Reply: FALSE

###

- methodSummary: Cell Viability - LYMP1-003 - Assay at 24 hr (AID 963)
- conditionSummary: LYMP1-003 lymphoblastoid cell viability; series mostly up to 92.2 µM
Activity calls are given as the source filed them. Calls follow the shape of the dose curve; as a rule, active = well fitted cell-killing curve with a large enough effect; inconclusive = small, poorly fitted or top-dose-only effect; inactive = flat fitted curve, though single readings scatter.
Please state which outcome applies, choosing from 1 = active, -1 = inactive

Ask: Please indicate how the test categorized O=C(O)c1cccc(Cl)c1Cl .
Reply: -1

Ask: Request: CCCCN(CCO)CCCC
Reply: -1

Ask: Next compound: CCCCCCCN
Reply: -1

Ask: Now the same for CC(=O)c1nccs1
Reply: -1

Ask: What do you get for CNc1ccccc1 ?
Reply: -1

Ask: Next compound up: Cc1cccc2sc(N)nc12
Reply: -1

Ask: Next record, please: Cc1c(N)cccc1N
Reply: -1

Ask: Can you handle Cc1ccc(CO)cc1 next?
Reply: -1

Ask: How about this compound: CCOCCOCC
Reply: -1

Ask: Again, but for c1ccc(Oc2ccccc2)cc1
Reply: -1

Ask: Same thing, different compound: O=C(O)c1c(Cl)cccc1Cl
Reply: -1

Ask: // query: C1CCC2OC2C1 (stereo not given)
Reply: -1

Ask: Now give it for CC(C)CCOC(=O)/C=C/c1ccccc1 too.
Reply: -1

Ask: Repeat with CC(=O)c1cccc([N+](=O)[O-])c1
Reply: -1

Ask: Try the compound CCCOCC(C)OCC(C)O (stereo not given)
Reply: -1

Ask: And for Cc1ccccc1Br ?
Reply: -1

Ask: Cool, now Cc1cc(C)c(N)cc1C
Reply: -1

Ask: Repeat with COc1cccc(N)c1
Reply: -1

Ask: Please do the same for CC(C)=C1CCC(C)CC1=O (stereo not given) as well.
Reply: -1

Ask: Moving on to CCCCC(=O)N(C)C
Reply: -1

Ask: How about this compound: C1CCCC1
Reply: -1

Ask: Next: Nc1cc([N+](=O)[O-])ccc1C(=O)O
Reply: -1

Ask: Please give the result for CCN(CC)c1cccc(O)c1 too.
Reply: -1

Ask: Quick one: [O-]/[N+](=N\O)c1ccccc1
Reply: -1

Ask: Param item: CC(C)C=O
Reply: -1

Ask: // repeat for CC(=O)OCc1ccco1 and report
Reply: -1

Ask: Then this compound: CC(C)C(C)C
Reply: -1

Ask: Try this compound too: O=C1C=CCCC1
Reply: -1

Ask: Next up: C[C@@H]1O[C@@H](O[C@@H]2[C@@H](O)[C@H](OCCc3ccc(O)c(O)c3)O[C@H](CO[C@@H]3O[C@H](CO)[C@@H](O)[C@H](O)[C@H]3O)[C@H]2OC(=O)/C=C/c2ccc(O)c(O)c2)[C@H](O)[C@H](O)[C@H]1O
Reply: -1

Ask: Consider next the compound CC1=C(/C=C/C(C)=C/C=C/C(C)=C\C=O)C(C)(C)CCC1 in the same way.
Reply: 1

Ask: Again, but for CC1(N)CCC(C(C)(C)N)CC1 (stereo not given)
Reply: -1

Ask: // query: Cc1ccc(Br)cc1
Reply: -1

Ask: Continue with NS(=O)(=O)O
Reply: -1

Ask: Input CCOc1cc(OCC)c(C(C)=O)cc1OCC
Reply: -1

Ask: How about this compound: ICCc1ccccc1
Reply: -1

Ask: Now the same for Cc1cc(C)cc([N+](=O)[O-])c1
Reply: -1

Ask: Now try CC=O .
Reply: -1

Ask: Another compound: CCOCC(=O)O
Reply: -1

Ask: Let us now turn to O=[N+]([O-])c1ccc(Cl)cc1Cl
Reply: -1

Ask: Also check NC(N)=S
Reply: -1

Ask: Try this compound next: O=Cc1ccc(C(=O)O)cc1
Reply: -1

Ask: Continue with CC(C)(c1cc(Br)c(OCC(Br)CBr)c(Br)c1)c1cc(Br)c(OCC(Br)CBr)c(Br)c1 (stereo not given)
Reply: -1

Ask: How about this compound: CC(C)c1ccccc1
Reply: -1

Ask: Would you kindly repeat that for CC=C(Cl)Cl ?
Reply: -1

Ask: Can you handle CC(=O)c1ccccn1 next?
Reply: -1

Ask: And what about the compound NC(=O)/N=N/C(N)=O ?
Reply: -1

Ask: Follow-up entry: O=C1OC(=O)c2c(Cl)c(Cl)c(Cl)c(Cl)c21
Reply: -1

Ask: Same question for Cc1ccc(S(=O)(=O)NC2CCCCC2)cc1 please.
Reply: -1

Ask: // same read-out, input: Oc1cccc(Nc2ccccc2)c1
Reply: -1

Ask: Quick one: CC(C)(O)CCC(C)(C)O
Reply: -1

Ask: Input BrC/C=C/CBr
Reply: -1

Ask: Please answer likewise for C=CCCCCCCC=C
Reply: -1

Ask: Moving on to COC(=O)CCCC(=O)OC
Reply: -1

Ask: Repeat for the following compound: CC(O)CC(C)O (stereo not given)
Reply: -1

Ask: Same thing, different compound: C=C(C)C1CC=C(C)C(OC(C)=O)C1 (stereo not given)
Reply: -1

Ask: Request: Cc1ccc2nc(-c3ccc(N)cc3)sc2c1S(=O)(=O)O
Reply: -1

Ask: Likewise for CCC(C)=O ?
Reply: -1

Ask: Try the compound CCCCCCCCC
Reply: -1

Ask: What do you have for Cc1ccc(C)c(N)c1 ?
Reply: -1

Ask: Then this compound: O=C1OC(=O)c2cc([N+](=O)[O-])ccc21
Reply: -1

###

- methodSummary: qHTS assay for small molecule disruptors of the mitochondrial membrane potential - 1 hr assay (AID 651754); note: nearly all actives have a fitted effect of over 35% in size
- conditionSummary: series mostly up to 92.2 µM
Inconclusive results are not listed. Active and inactive are the calls of the source. Calls follow the shape of the full dose curve.
Write down the outcome that applies. Available outcomes: YES for active, NO for inactive

Ask: Outcome logged for O=[N+]([O-])c1cccc(C(F)(F)F)c1 in this assay:
Reply: NO

Ask: Also, CC(=O)Nc1ccc(C)cc1 please.
Reply: NO

Ask: Moving on to the next compound: CCC(C)(C)OC
Reply: NO

Ask: // query: COc1ccc(N)c(C)c1
Reply: NO

Ask: Same again, this time with C=C(C)C(=O)OC
Reply: NO

Ask: Ok, now C=C(C)C(N)=O
Reply: NO

Ask: Continue with C=CCCC
Reply: NO

Ask: Please answer likewise for CC(C)(O)CCC(C)(C)O
Reply: NO

Ask: Here is the next compound: CCCCN(CCO)CCCC
Reply: NO

Ask: Request: CCOc1ccccc1N
Reply: NO

Ask: Further, for NC(N)=S ?
Reply: NO

Ask: Okay, and O=C(O)CNC(=O)c1ccc(CO)o1 ?
Reply: NO

Ask: Would you kindly repeat that for Nc1cc(S(=O)(=O)O)ccc1O ?
Reply: NO

Ask: Record: CN(C)c1cccc(O)c1
Reply: NO

Ask: Quick one: Cc1cc(C)cc([N+](=O)[O-])c1
Reply: NO

Ask: Proceed to c1ccc2n[nH]nc2c1
Reply: NO

Ask: Thanks! And Clc1cc(Cl)cc(Cl)c1 ?
Reply: NO

Ask: How about this compound: Nc1cc(Cl)c(N)c(Cl)c1
Reply: NO

Ask: Repeat for the following compound: CCOCCOCC
Reply: NO

Ask: Next compound: O=C1OC(=O)c2c(Cl)c(Cl)c(Cl)c(Cl)c21
Reply: NO

Ask: What about this compound? O=C(O)c1ccccc1Cl
Reply: NO

Ask: Could you do the same for CC/C(C)=N/O , please?
Reply: NO

Ask: // next record CNC(=O)N(c1ccccc1)c1ccccc1
Reply: NO

Ask: What about this compound? Nc1cc(Cl)c([N+](=O)[O-])cc1O
Reply: YES

Ask: Next compound up: CCc1ccccc1
Reply: NO

Ask: Subsequent entry: C=C(C)C(=O)OCCCCCC
Reply: NO

Ask: Repeat with C=Cc1ccc(C=C)cc1
Reply: NO

Ask: Item: CC(=O)CC(C)C
Reply: NO

Ask: Note, next up: C=C(C)OC(C)=O
Reply: NO

Ask: Could you do the same for OC/C(Br)=C(\Br)CO , please?
Reply: NO

Every entry's value here was drawn from PubChem BioAssay (NCATS).
